tested on: ACHN; experiment: NCI tumour cell line growth inhibition, 48 h
Active and inactive are the calls of the source. No stated cut-off is given here; in the data, active = GI50 up to about 1.1 µM and inactive = higher.
Outcomes: active, inactive

molecule | class label
c1ccc(-c2nnc(-c3nn(-c4ccccc4)c4nc5ccccc5nc34)o2)cc1 | inactive
Cc1cnc2c(c1)C(=O)C1=C(OC(C)(C)CC1O)C2=O (stereo unspecified) | inactive
O=c1c(Nc2ccccc2)cn(CCOc2ccccc2)c(=O)n1CCOc1ccccc1 | inactive
Cc1ccc(S(=O)(=O)NCCN(CCNS(=O)(=O)c2ccc(C)cc2)S(=O)(=O)c2ccc(C)cc2)cc1 | inactive
CCCCCCC(=O)CC(=O)C(=O)Nc1ccccc1C | inactive
CC1(C)Cc2c(C#N)c(N)c3c(c2CO1)C(=O)OC3=O | inactive
c1ccc(C2=NN3CN(N2)c2ccccc2OCCCOc2ccccc23)cc1 | inactive
CCc1ccccc1NC(=O)C1=C(C)NC(C)=C(C(=O)Nc2ccccc2CC)C1c1ccc(NC(C)=O)cc1 | inactive
CC(C)(Oc1ccc(/C=C/C(=O)c2ccccc2)cc1)C(=O)Nc1c(Cl)cccc1Cl | inactive
COc1cc(/C=C2\C(=O)N(C(=O)c3ccc(NC(C)=O)cc3)N=C2C)ccc1O | inactive
C=CCOc1ccc(C2(c3ccc(OCC=C)cc3)C(=O)Nc3ccccc32)cc1 | inactive
N#CC(C#N)=Cc1ccc2c(c1)OC(Cl)O2 (stereo unspecified) | inactive
O=C(O)c1ccc(OCc2nc3cc(C(F)(F)F)ccc3nc2-c2ccccc2)cc1 | inactive
CC1CN=C(Nc2ccc(F)cc2F)S1 (stereo unspecified) | inactive
CN(CC(=O)O)Cc1c[nH]c2ccccc12 | inactive
Nc1cccc(/C=C/CN2CCN(CCOC(c3ccccc3)c3ccccc3)CC2)c1 | inactive
COc1cc(/C=C2/C(=O)N/C(=N\C(C)=O)N2C)ccc1OC(C)=O | inactive
CCCC(CC)c1cc(O)c(O)cc1C(CC)CCC (stereo unspecified) | inactive
Cc1ccc2c(c1)CC1(Cc3cccc(C)c3C1=O)C2=O (stereo unspecified) | inactive
Cc1cn(C2CC(ON3C(=O)c4ccccc4C3=O)C(CO)O2)c(=O)[nH]c1=O (stereo unspecified) | inactive
COc1ccc([C@@]23Oc4cc(OC)cc(OC)c4[C@]2(O)[C@H](O)[C@H](C(N)=O)[C@H]3c2ccccc2)cc1 [DIDESMETHYLROCAGLAMIDE] | active
